- measurement protocol: Pharmacokinetics after tail vein injection
- Format: in vivo
- test conditions: male, rat, plasma, iv; SD rats, 10 mg/kg tanshinone IIA equivalent, tail vein; read-out: MRT0–∞
- Method: Twelve male SD rats (weighing 200–250 g) were randomly divided into three groups. Rats were fasted for 12 h but drank water freely before administration ([38]). The first, second, and third groups were injected with Free TanIIA, TanIIA-NSVs, and Gal-pH-TanIIA-NSVs at an equivalent tanshinone IIA dose of 10 mg/kg via tail vein, respectively. […] After treatment of plasma and tissue homogenate, the obtained supernatant was concentrated by nitrogen blowing and determined by HPLC.
attribute measured: MRT inf (h)
Enter your answer as a number in h; do not include the unit.

Query :: Given the molecule Cc1coc2c1C(=O)C(=O)c1c-2ccc2c1CCCC2(C)C [Free TanIIA, Tanshinone IIA] , what is its reported MRT inf?
Result :: 3.53
